target: ZFP SBS#509 (synthetic); assay: EMSA; settings: tags: MBP fusion
Sequence (chain, as listed by the source): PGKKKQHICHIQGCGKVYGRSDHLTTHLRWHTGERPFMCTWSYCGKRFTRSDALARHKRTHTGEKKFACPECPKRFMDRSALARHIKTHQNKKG
quantity_measured: Kd (nM)
API: value field is a number in nM; no unit string.

May I ask what Kd has been recorded for GTCGTGTGGC (dsDNA) DNA 1: GTCGTGTGGC DNA 2: GCCACACGAC ?
100
